system: NCI-H647; experiment: relative viability (nuclei count vs DMSO), 5 days (fraction); higher = more cells survive; conditions: first compound 0.04 µM
Property: relative viability; scope: individual compounds

Solved entries (count: 4):
Cc1sc2c(c1C)C(c1ccc(Cl)cc1)=N[C@@H](CC(=O)OC(C)(C)C)c1nnc(C)n1-2 [JQ1] + Nc1ncn([C@H]2C[C@H](O)[C@@H](CO)O2)c(=O)n1 [Decitabine] (partner 2 µM) = 0.309
Cc1sc2c(c1C)C(c1ccc(Cl)cc1)=N[C@@H](CC(=O)OC(C)(C)C)c1nnc(C)n1-2 [JQ1] + COc1cccc2cc(-c3nc([C@H]4CC[C@H](C(=O)O)CC4)n4ncnc(N)c34)[nH]c12 [OSI-027] (partner 0.5 µM) = 0.567
Cc1sc2c(c1C)C(c1ccc(Cl)cc1)=N[C@@H](CC(=O)OC(C)(C)C)c1nnc(C)n1-2 [JQ1] + CC(=O)c1c(C)c2cnc(Nc3ccc(N4CCNCC4)cn3)nc2n(C2CCCC2)c1=O [Palbociclib] (partner 0.5 µM) = 0.372
Cc1sc2c(c1C)C(c1ccc(Cl)cc1)=N[C@@H](CC(=O)OC(C)(C)C)c1nnc(C)n1-2 [JQ1] + O=C(CCCCCCC(=O)Nc1ccccc1)NO [Vorinostat] (partner 1 µM) = 0.615

Now examine the next entry.
Prompt: So what's the measured relative viability for this one? Cc1sc2c(c1C)C(c1ccc(Cl)cc1)=N[C@@H](CC(=O)OC(C)(C)C)c1nnc(C)n1-2 [JQ1] + Cc1nc(NC(=O)N2CCC[C@H]2C(N)=O)sc1-c1ccnc(C(C)(C)C(F)(F)F)c1 [Alpelisib] (partner 2 µM)
Completion: 0.998

====

test system: NCI-H661; test: relative viability (nuclei count vs DMSO), 5 days (fraction); higher = more cells survive; settings: first compound 0.002 µM
readout-label: relative viability
Please respond with just the number, no unit label.

Before answering, review these 2 worked examples.
CC(=O)O[C@@]12CO[C@@H]1C[C@H](O)[C@@]1(C)C(=O)[C@H](O)C3=C(C)[C@@H](OC(=O)[C@H](O)[C@@H](NC(=O)OC(C)(C)C)c4ccccc4)C[C@@](O)([C@@H](OC(=O)c4ccccc4)[C@H]21)C3(C)C [Docetaxel] + Cc1nc(Nc2ncc(C(=O)Nc3c(C)cccc3Cl)s2)cc(N2CCN(CCO)CC2)n1 [Dasatinib] (partner 0.075 µM) = 0.528
CC(=O)O[C@@]12CO[C@@H]1C[C@H](O)[C@@]1(C)C(=O)[C@H](O)C3=C(C)[C@@H](OC(=O)[C@H](O)[C@@H](NC(=O)OC(C)(C)C)c4ccccc4)C[C@@](O)([C@@H](OC(=O)c4ccccc4)[C@H]21)C3(C)C [Docetaxel] + O=C(CCCCCCC(=O)Nc1ccccc1)NO [Vorinostat] (partner 1 µM) = 0.728

Shift focus to the following entry.
Prompt: Quick one: relative viability of CC(=O)O[C@@]12CO[C@@H]1C[C@H](O)[C@@]1(C)C(=O)[C@H](O)C3=C(C)[C@@H](OC(=O)[C@H](O)[C@@H](NC(=O)OC(C)(C)C)c4ccccc4)C[C@@](O)([C@@H](OC(=O)c4ccccc4)[C@H]21)C3(C)C [Docetaxel] + CS(=O)(=O)CCNCc1ccc(-c2ccc3ncnc(Nc4ccc(OCc5cccc(F)c5)c(Cl)c4)c3c2)o1 [Lapatinib] (partner 2 µM) ?
Completion: 0.4
